Entry source: ChEMBL document CHEMBL3988442

target.or.system: Ubiquitin-activating enzyme e1, putative (Leishmania donovani (strain BPK282A1))
Sequence (whole entry): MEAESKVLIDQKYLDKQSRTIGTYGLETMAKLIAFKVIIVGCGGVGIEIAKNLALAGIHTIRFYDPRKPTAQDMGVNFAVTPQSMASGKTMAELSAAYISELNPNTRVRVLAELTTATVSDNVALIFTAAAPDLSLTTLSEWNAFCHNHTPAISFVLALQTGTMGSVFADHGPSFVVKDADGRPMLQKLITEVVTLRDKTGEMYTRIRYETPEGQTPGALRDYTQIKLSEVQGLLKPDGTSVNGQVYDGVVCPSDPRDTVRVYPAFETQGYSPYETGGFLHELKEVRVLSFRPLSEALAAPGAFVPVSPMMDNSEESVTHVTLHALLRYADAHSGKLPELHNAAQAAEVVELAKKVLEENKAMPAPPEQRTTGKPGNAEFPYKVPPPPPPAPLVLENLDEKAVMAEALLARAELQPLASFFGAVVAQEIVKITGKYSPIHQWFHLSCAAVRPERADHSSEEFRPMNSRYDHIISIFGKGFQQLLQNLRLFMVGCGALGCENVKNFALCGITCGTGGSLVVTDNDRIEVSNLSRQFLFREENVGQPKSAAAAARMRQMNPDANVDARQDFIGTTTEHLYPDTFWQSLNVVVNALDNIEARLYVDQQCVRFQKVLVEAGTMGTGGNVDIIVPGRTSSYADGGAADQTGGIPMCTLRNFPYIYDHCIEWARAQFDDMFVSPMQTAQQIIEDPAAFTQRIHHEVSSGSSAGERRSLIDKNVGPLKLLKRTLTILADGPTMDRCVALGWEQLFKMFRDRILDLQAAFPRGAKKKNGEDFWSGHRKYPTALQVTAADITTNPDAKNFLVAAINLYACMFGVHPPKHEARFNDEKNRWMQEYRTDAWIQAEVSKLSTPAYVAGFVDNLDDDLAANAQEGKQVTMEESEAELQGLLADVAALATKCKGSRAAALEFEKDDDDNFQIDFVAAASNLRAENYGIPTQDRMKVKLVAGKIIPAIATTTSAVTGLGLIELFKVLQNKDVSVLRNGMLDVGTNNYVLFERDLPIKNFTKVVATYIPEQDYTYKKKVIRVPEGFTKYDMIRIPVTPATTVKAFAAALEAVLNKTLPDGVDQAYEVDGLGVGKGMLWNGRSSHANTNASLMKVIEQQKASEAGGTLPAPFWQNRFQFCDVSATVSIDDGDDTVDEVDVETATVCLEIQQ
test.summary: Leishmania donovani Ubiquitin Activating Enzyme (LdE1)
Assay type: functional
Set-up: scale not given: direction of the effect not stated beside the values
setup.conditions: 30 µM
Entries with a potency or affinity are not part of this list.
# Lookup of reported Percent Effect keyed by entry
endpoint: Percent Effect (%)

{"columns": ["structure.smiles", "endpoint", "reported.result"],
 "data": [
  ["Cc1cnn(CCC(=O)N2CCCN(c3cccnn3)CC2)c1", "Percent Effect", 3.8],
  ["COc1cc(C(=O)N(Cc2cnn(C)c2)C(C)C)ccc1OCC(N)=O", "Percent Effect", 18.4],
  ["CCN(CC)CC(=O)NCCc1csc(N2CCCC2)n1", "Percent Effect", -2.67],
  ["CN(c1ccc(C(C)(C)C)cc1)S(=O)(=O)c1cc(C(=O)O)cs1", "Percent Effect", -2.7],
  ["CN(C)CCN(Cc1cccc(C(F)(F)F)c1)C(=O)c1cc[nH]n1", "Percent Effect", -4.17],
  ["Cc1ccc(=O)n(CC2(O)CCN(Cc3ccsc3)CC2)n1", "Percent Effect", 1.35]
]}
